target: 5-HT2A Receptor (Rattus norvegicus); experiment: 5-HT2 Functional Assay: [Ca2+]i Mobilization (FLIPR, A7r5 cells); type: cell-based; design: endogenous in cells; host or cells: A7r5 rat vascular smooth muscle cells; conditions: percentage of a maximum 5-HT-induced response, A7r5 cells; read-out: Efficacy (Emax, %)
Sequence (P14842 whole entry): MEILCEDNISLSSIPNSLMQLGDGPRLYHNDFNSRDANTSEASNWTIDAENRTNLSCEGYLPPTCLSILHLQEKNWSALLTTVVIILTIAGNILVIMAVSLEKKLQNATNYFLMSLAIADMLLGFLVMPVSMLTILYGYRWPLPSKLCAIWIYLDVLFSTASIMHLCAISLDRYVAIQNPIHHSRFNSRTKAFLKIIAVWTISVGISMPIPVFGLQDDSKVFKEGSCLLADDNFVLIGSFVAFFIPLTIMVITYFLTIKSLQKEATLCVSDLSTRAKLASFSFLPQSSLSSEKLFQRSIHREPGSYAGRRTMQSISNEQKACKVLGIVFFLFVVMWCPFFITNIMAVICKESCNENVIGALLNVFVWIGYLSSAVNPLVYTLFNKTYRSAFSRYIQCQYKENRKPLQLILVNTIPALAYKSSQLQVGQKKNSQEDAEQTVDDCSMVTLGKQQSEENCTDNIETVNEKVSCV
Entries and their measured Emax follow.

COMPOUND | Emax (%)
C[C@H](N)Cn1ncc2ccc3c(c21)C=CCO3 [Example 9] | 91
C[C@H](N)Cn1ncc2ccc3c(c21)[C@H](O)[C@H](O)CO3 (relative stereo) [Example 7] | 85
C[C@H](N)Cn1ncc2ccc3c(c21)C[C@@H](OCCO)CO3.Cl.Cl [Example 13, Dihydrochloride] | 87
C[C@H](N)Cn1ncc2ccc3c(c21)C[C@@H](OCC(N)=O)CO3 [Example 15] | 95
C[C@H](N)Cn1ncc2ccc3c(c21)CC(O)CO3 (some centres unmarked) [Example 3] | 85
